All figures here come from patent US7163800B2.

Measured pEC50 accompanies every entry in the list below.
target: human vasopressin V2 receptor (V2R) (Homo sapiens); experiment: arrestin-GFP localization (Fgrains) assay in U20S-V2R/ArrGFP cells, arginine vasopressin stimulated; format: cell-based; settings: V2R CO2 plate: 37° C., 5% CO2/95% O2; 100 nM arginine vasopressin
Sequence (P30518 whole entry): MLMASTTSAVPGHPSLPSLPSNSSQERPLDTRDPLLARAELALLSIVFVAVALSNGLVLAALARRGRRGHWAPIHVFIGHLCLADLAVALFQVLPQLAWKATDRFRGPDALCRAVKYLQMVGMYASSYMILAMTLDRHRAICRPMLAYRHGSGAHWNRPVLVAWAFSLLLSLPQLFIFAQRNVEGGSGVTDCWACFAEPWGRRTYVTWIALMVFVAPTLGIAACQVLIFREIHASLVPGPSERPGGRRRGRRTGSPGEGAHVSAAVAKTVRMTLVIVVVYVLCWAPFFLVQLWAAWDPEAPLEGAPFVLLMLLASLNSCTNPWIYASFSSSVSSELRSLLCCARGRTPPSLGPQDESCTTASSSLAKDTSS
No unit in the answer, only the number.

Worked cases, pEC50 given:
COMPOUND	ASSAYED SYSTEM	pEC50
O=C1NC(=O)C(c2c[nH]c3ccccc23)=C1c1c[nH]c2ccccc12 [Bisindolylmaleimide IV]	human vasopressin V2 receptor (V2R) (Homo sapiens)	4.2
O=C1NC(=O)C(c2cn(CCCN3CCNCC3)c3ccccc23)=C1c1c[nH]c2ccccc12 [Bisindolylmaleimide VII]	human vasopressin V2 receptor (V2R) (Homo sapiens)	5.0
NCCCn1cc(C2=C(c3c[nH]c4ccccc34)C(=O)NC2=O)c2ccccc21 [Bisindolylmaleimide III]	human vasopressin V2 receptor (V2R) (Homo sapiens)	5.2

# ---- query compound ----
Query block: Recorded pEC50 for Cn1cc(C2=C(c3c4n(c5ccccc35)CCC(CN)C4)C(=O)NC2=O)c2ccccc21 (stereo not shown) , please?
Result block: 4.9
